src = the supplement of paper PMC9112550

system: Escherichia coli TOP10; test: shrunken log2 fold change of peptide-encoding DNA abundance (4.5 h post-induction vs induction); higher = less antimicrobial activity (less host growth inhibition); settings: time post-induction: 4.5 h; library: site-saturation at positions 5, 18, 19, 20;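 further: peptides expressed intracellularly from a pBAD plasmid library in pooled LB shake-flask culture, induced with 0.3% L-arabinose, DNA abundance read by NGS, three biological replicates, DESeq2 with apeglm shrinkage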
This listing pairs sequences with measured shrunken log2 fold change.
Give your answer as a number; write no unit.

Would you please look over these solved cases?
• RRIRVRPPRLPRPRPRPFILPRP = -0.384
• RRIRQRPPRLPRPRPRPKMCPRP = -0.002
• RRIRYRPPRLPRPRPRPGYRPRP = -0.46
• RRIRVRPPRLPRPRPRPWTCPRP = -0.0943
• RRIRTRPPRLPRPRPRPWMSPRP = 0.00487

Query: Need shrunken log2 fold change of RRIRIRPPRLPRPRPRPFAAPRP , thanks.
Response: -0.258

Query: Need shrunken log2 fold change of RRIRVRPPRLPRPRPRPQWWPRP , thanks.
Response: 0.0756

Query: Need shrunken log2 fold change of RRIRRRPPRLPRPRPRPGIYPRP , thanks.
Response: 0.0548

Query: Need shrunken log2 fold change of RRIRDRPPRLPRPRPRPFHTPRP , thanks.
Response: -0.569
